- Test system: Glycine max (GLXMA, soybean)
- ASSAY NOTES: Test 1B glasshouse assay for herbicidal activity, post-emergence
- Type: in vivo
- CONDITIONS: 360 h, 30 g/ha application rate
ENDPOINT: plant injury at 30 g/ha (%)
Give bare numbers, in %.

Sample answers from the record:
>>> print(df.to_string())
                                   compound                 endpoint  units_of_measure  number
0  CC#Cc1cc(Cl)c(C2C(=O)C3CCC(C3)C2=O)c(OCC)c1 (stereo not drawn)  plant injury at 30 g/ha                 %       0
1  CC#Cc1cc(C)c(C2C(=O)C3CCC(C3)C2=O)c(OC)c1 (stereo not drawn)  plant injury at 30 g/ha                 %      10
2  CC#Cc1cc(C)c(C2C(=O)CC(CC3CCOCC3)CC2=O)c(C)c1 (stereo not drawn)  plant injury at 30 g/ha                 %      60
3  CC#Cc1cc(C)c(C2=C(OC(=O)OC)CC(c3ccccn3)CC2=O)c(C)c1 (stereo not drawn)  plant injury at 30 g/ha                 %      40
4  CC#Cc1cc(C)c(C2C(=O)C3CCC(C3)C2=O)c(C)c1 (stereo not drawn)  plant injury at 30 g/ha                 %      10
5  Cc1cc(C#CCl)cc(C)c1C1C(=O)C2CCC(C2)C1=O (stereo not drawn)  plant injury at 30 g/ha                 %       0
6  CC#Cc1cc(C)c(C2=C(OC(C)=O)CC(c3ccccn3)CC2=O)c(C)c1 (stereo not drawn)  plant injury at 30 g/ha                 %      20
7  CC#Cc1cc(Cl)c(C2C(=O)C3CCC(C3)C2=O)c(OC)c1 (stereo not drawn)  plant injury at 30 g/ha                 %       0

Here is another compound to look at.
// field: plant injury at 30 g/ha; key: Cc1cc(C#CCl)cc(C)c1C1C(=O)CC(CC2CCOCC2)CC1=O (stereo not drawn) ; value = 50

###

- Tested on: Echinochloa crus-galli (ECHCG)
- ASSAY NOTES: Test 1B glasshouse assay for herbicidal activity, post-emergence
- Format: in vivo
- CONDITIONS: Echinochloa crus-galli, 125 g/ha application rate
Exercise: state measured pest or weed control at 125 g/ha for each of the molecules provided.
Answers are plain numbers, in %.

                                   molecule                             tgt                          endpoint  units_of_measure  number
0  CC#Cc1cc(C)c(C2=C(OC(=O)OC)CC(c3ccccn3)CC2=O)c(C)c1 (centres unmarked)  Echinochloa crus-galli (ECHCG)  pest or weed control at 125 g/ha                 %     100
1  CC#Cc1cc(C)c(C2C(=O)C3CCC(C3)C2=O)c(OC)c1 (centres unmarked)  Echinochloa crus-galli (ECHCG)  pest or weed control at 125 g/ha                 %     100
2  CC#Cc1cc(C)c(C2C(=O)C3CCC(C3)C2=O)c(C)c1 (centres unmarked)  Echinochloa crus-galli (ECHCG)  pest or weed control at 125 g/ha                 %     100

List the reported pest or weed control at 125 g/ha of each molecule below.
1. CC#Cc1cc(C)c(C2C(=O)CC(c3ccccn3)CC2=O)c(C)c1 (centres unmarked)
2. Cc1cc(C)c(C2C(=O)C3CCC(C3)C2=O)c(C)c1 (centres unmarked) [Compound X-9, reference compound]
3. CC#Cc1cc(C)c(C2=C(OC(C)=O)CC(c3ccccn3)CC2=O)c(C)c1 (centres unmarked)
4. CC#Cc1cc(Cl)c(C2C(=O)C3CCC(C3)C2=O)c(OCC)c1 (centres unmarked)
5. CC#Cc1cc(Cl)c(C2C(=O)C3CCC(C3)C2=O)c(OC)c1 (centres unmarked)

A:
80
60
100
100
100

Attribution: patent US9615577B2
